targetSystem: T1, hHER3 full length (human, UniProt P21860 20-1342)
T1 construct: On transfected CHO, CHO HER2/HER3, CHO EGFR/HER3 or CHO Flp-In cells; endogenous HER3 of MCF-7 and MDA-MB468 cells in the signalling assays; also called human HER3
procedureSummary: FACS, 400 nM, competitor 18E08-biotin
readout: % competition (%)

binder="18F05 (VHH, also called 18F5) VHH: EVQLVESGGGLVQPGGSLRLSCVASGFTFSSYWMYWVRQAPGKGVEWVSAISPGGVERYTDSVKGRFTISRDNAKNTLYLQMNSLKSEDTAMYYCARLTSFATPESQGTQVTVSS" readout="% competition" datavalue=0
binder="34C07 (VHH, c-myc, His6-tagged form as expressed; also called 34C7; HER3MS34C07) VHH: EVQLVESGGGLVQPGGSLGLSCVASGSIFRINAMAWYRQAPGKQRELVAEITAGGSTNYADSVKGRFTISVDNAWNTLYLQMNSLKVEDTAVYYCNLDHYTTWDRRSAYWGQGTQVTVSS" readout="% competition" datavalue=99

a: 23F05 (VHH) VHH: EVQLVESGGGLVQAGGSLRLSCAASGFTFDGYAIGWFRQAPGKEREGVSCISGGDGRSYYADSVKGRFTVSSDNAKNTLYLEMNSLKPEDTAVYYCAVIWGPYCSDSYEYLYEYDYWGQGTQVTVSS
b: 17B05 (VHH, also called HER3MS17B05; HER3MS017B05) VHH: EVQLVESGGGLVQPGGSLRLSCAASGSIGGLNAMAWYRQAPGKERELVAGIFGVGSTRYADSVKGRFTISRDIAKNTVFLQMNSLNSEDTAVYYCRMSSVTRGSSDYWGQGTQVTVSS
QUERY: Pick one: a or b . Which has the bigger % competition number? Respond using the label that marks the chosen record.
RESULT: a
